# subjectOfTest: IL-17 receptor (the IL-17RA-IL-17RC heterodimer) (Mus musculus, UniProt Q60943+Q8K4C2, F156E)
# Sequence (Q60943 32-358): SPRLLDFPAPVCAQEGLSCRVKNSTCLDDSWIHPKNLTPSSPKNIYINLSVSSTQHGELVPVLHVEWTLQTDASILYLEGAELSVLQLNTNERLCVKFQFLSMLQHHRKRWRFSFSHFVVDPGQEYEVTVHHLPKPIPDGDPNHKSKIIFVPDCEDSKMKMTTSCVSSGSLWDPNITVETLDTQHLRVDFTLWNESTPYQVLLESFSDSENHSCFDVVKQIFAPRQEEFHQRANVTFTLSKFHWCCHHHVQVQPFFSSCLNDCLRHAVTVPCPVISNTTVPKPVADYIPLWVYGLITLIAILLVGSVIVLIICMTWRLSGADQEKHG
# Sequence (Q8K4C2 22-500 F156E): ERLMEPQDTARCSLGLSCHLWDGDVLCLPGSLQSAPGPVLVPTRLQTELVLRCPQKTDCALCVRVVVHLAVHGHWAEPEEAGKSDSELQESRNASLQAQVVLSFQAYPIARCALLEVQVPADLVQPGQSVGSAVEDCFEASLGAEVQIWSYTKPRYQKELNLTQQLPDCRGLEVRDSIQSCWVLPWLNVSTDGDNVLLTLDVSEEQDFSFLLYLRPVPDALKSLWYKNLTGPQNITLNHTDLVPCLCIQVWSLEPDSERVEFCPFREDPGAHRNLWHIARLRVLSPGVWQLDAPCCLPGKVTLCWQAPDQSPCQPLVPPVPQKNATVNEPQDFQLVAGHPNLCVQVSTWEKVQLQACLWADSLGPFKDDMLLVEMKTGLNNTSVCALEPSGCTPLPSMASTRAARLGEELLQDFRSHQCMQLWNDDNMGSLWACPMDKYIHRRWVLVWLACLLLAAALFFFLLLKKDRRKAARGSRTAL
# Sequence (Q62386 26-158 partner): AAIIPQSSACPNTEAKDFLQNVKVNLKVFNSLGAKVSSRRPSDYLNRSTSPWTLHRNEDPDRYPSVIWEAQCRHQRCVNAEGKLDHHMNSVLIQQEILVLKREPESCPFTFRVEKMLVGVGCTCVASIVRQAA
# testSummary: IL-17A-receptor (IL-17RA/IL-17RC) GFP reporter cell screen
# conditionParameters: reducing IL-17A-receptor reporter activities; GFP percentage by microscope, 48 hours
measuredQuantity: IC50 (µM)
Enter your answer as a number in µM; do not include the unit.

Here's what some known entries look like.
compound	IC50, µM
CCc1ccc(S(=O)(=O)c2c(C(=O)c3ccc(C)c(C)c3)cnc3ccccc23)cc1 [Compound 5]	6.83
CCOc1ccc(S(=O)(=O)c2c(C(=O)c3ccc(C)c(C)c3)cnc3ccccc23)cc1 [Compound 2]	31.4
O=C(Nc1ccc(Cl)cc1Cl)c1cc(S(=O)(=O)N2CCCCCC2)ccc1F [Compound 7]	15

Prompt: Would you kindly share the measured IC50 for CCc1ccc(S(=O)(=O)c2c(C(=O)c3ccccc3)cnc3ccc(CC)cc23)cc1 [Compound 1] ?
Response: 4.81

Prompt: Would you kindly share the measured IC50 for CCOc1ccc(S(=O)(=O)c2c(C(=O)c3ccc(CC)cc3)cnc3ccc(C)cc23)cc1 [Compound 3] ?
Response: 12.2

###

This listing pairs compounds with measured log10 IC50.
# subjectOfTest: TNF-a receptor (TNF-R1 reporter cells) (Homo sapiens, UniProt P19438)
# Construct: development described in WO2022125865A2
# testSummary: TNF-a-receptor GFP reporter cell screen
# conditionParameters: reducing TNF-a-receptor reporter activities; GFP percentage by microscope, 48 hours
Short version: log10 scale, IC50, nM.

Here's what some known entries look like.
compound	subjectOfTest	log10 IC50
Cc1ccc(Cn2c(CNS(=O)(=O)c3ccc(Cl)s3)nc3cccnc32)cc1	TNF-a receptor (TNF-R1 reporter cells) (Homo sapiens, UniProt P19438)	2.93
Cc1ccc(Cn2c(CNS(=O)(=O)c3ccc(F)c(Cl)c3)nc3cccnc32)cc1	TNF-a receptor (TNF-R1 reporter cells) (Homo sapiens, UniProt P19438)	3.11
COc1cccc(CNC(=O)CSC2=Nc3ccccc3N=C(c3ccc(F)cc3)C2)c1	TNF-a receptor (TNF-R1 reporter cells) (Homo sapiens, UniProt P19438)	3.80
COc1cc(NC(=O)C(Cc2ccccc2)NS(=O)(=O)c2cccs2)cc(OC)c1 (stereo not drawn)	TNF-a receptor (TNF-R1 reporter cells) (Homo sapiens, UniProt P19438)	3.41
O=C(NCCNC(=O)C(c1ccc(F)cc1)N1CCCCC1)c1ccccc1Cl (stereo not drawn)	TNF-a receptor (TNF-R1 reporter cells) (Homo sapiens, UniProt P19438)	3.22
CC(C)C1N=C2c3ccccc3N=C(SCC(=O)NCc3ccc(F)cc3)N2C1=O (stereo not drawn)	TNF-a receptor (TNF-R1 reporter cells) (Homo sapiens, UniProt P19438)	3.94
CN(Cc1ccc2nonc2c1)C(=O)C(c1ccc(F)cc1)N1CCCCC1 (stereo not drawn)	TNF-a receptor (TNF-R1 reporter cells) (Homo sapiens, UniProt P19438)	3.16
O=c1n(Cc2cccc3ccccc23)nc(C2CCCNC2)n1-c1ccccc1 (stereo not drawn)	TNF-a receptor (TNF-R1 reporter cells) (Homo sapiens, UniProt P19438)	3.26

Prompt: Form field: log10 IC50 recorded for COc1cccc(-c2nn(-c3ccccc3)cc2CN2CCC(NC(C)=O)C2)c1 (stereo not drawn) with TNF-a receptor (TNF-R1 reporter cells) (Homo sapiens, UniProt P19438) (enter value)
Response: 2.79
